test system: HCC1954 cells; experiment: In vitro cell killing assay of payloads (cell proliferation, Cell-Titer-Glo); format: cell-based; conditions: Homo sapiens, 120 h; HCC1954 cells; Cell-Titer-Glo after five days; Table 2b; read-out: In vitro cell killing (IC50 (nM)) HCC1954
Starred links: 1 amine or outer side, 2 acyl side, 3 side chain; linkers in the order of their positions; H or OH if unused. Non-standard residues stand in square brackets, D forms with d. Residues, ends and D or L forms follow the SMILES beside them. *: point of attachment. Dolaproine = CO[C@@H]([C@@H]1CCCN1)[C@@H](C)C(=O)O; X1 = O=C([C@@H]1[C@H]2CC[C@H](C2)N1[*:1])[*:2]; X3 = NC(=O)CN1[C@@H]2CC[C@@H](C2)[C@H]1C(=O)*; Dil = CC[C@H](C)[C@H](NC)[C@@H](CC(=O)O)OC; X2 = CN1[C@@H]2CC[C@@H](C2)[C@H]1C(=O)*; Phe(ol) = N[C@H](CO)Cc1ccccc1
readout.name: IC50 (nM)
Please state the figure in nM; there is no need to write the unit.

*Q* Consider the compound CC[C@H](C)[C@@H]([C@@H](CC(=O)N1CCC[C@H]1[C@H](OC)[C@@H](C)C(=O)N[C@@H](Cc1ccccc1)c1nc(-c2ccccc2)c[nH]1)OC)N(C)C(=O)[C@@H](NC(=O)[C@@H]1[C@H]2CC[C@H](C2)N1C)C(C)C and give its measured IC50.
*A* 0.023

*Q* Which IC50 is listed for CC[C@H](C)[C@@H]([C@@H](CC(=O)N1CCC[C@H]1[C@H](OC)[C@@H](C)C(=O)N[C@H](C)[C@@H](O)c1ccccc1)OC)N(C)C(=O)[C@@H](NC(=O)[C@@H]1[C@H]2CC[C@H](C2)N1C)C(C)C ?
*A* 0.27

*Q* Recorded IC50 of CC[C@H](C)[C@@H]([C@@H](CC(=O)N1CCC[C@H]1[C@H](OC)[C@@H](C)C(=O)N[C@@H](Cc1ccccc1)C(=O)O)OC)N(C)C(=O)[C@@H](NC(=O)[C@@H]1[C@H]2CC[C@H](C2)N1C)C(C)C [Compound 54] (X2-V[Dil][Dolaproine]F-OH) , please.
*A* 7.18

*Q* # lookup: IC50 of CC[C@H](C)[C@@H]([C@@H](CC(=O)N1CCC[C@H]1[C@H](OC)[C@@H](C)C(=O)N[C@@H](Cc1ccccc1)CS(N)(=O)=O)OC)N(C)C(=O)[C@@H](NC(=O)[C@@H]1[C@H]2CC[C@H](C2)N1C)C(C)C
*A* 0.124

*Q* What IC50 value was documented for this compound, CC[C@H](C)[C@@H]([C@@H](CC(=O)N1CCC[C@H]1[C@H](OC)[C@@H](C)C(=O)N[C@H](CO)Cc1ccccc1)OC)N(C)C(=O)[C@@H](NC(=O)[C@@H]1[C@H]2CC[C@H](C2)N1C(C)=O)C(C)C [Compound 65] (Ac-[X1]V[Dil][Dolaproine][Phe(ol)]) ?
*A* 0.93

*Q* Give its IC50 value. Item: CC[C@H](C)[C@@H]([C@@H](CC(=O)N1CCC[C@H]1[C@H](OC)[C@@H](C)C(=O)N[C@H](CO)Cc1cccc(N)c1)OC)N(C)C(=O)[C@@H](NC(=O)[C@@H]1[C@H]2CC[C@H](C2)N1C)C(C)C
*A* 0.019

*Q* # lookup: IC50 of CC[C@H](C)[C@@H]([C@@H](CC(=O)N1CCC[C@H]1[C@H](OC)[C@@H](C)C(=O)N[C@@H](Cc1ccccc1)C(=O)OC)OC)N(C)C(=O)[C@@H](NC(=O)[C@@H]1[C@H]2CC[C@H](C2)N1C)C(C)C [Compound 53] (X2-V[Dil][Dolaproine]F-OMe)
*A* 0.009

*Q* Dear colleague, I am looking for the recorded IC50 of the following compound: CC[C@H](C)[C@@H]([C@@H](CC(=O)N1CCC[C@H]1[C@H](OC)[C@@H](C)C(=O)N[C@H](Cc1ccccc1)c1ncccn1)OC)N(C)C(=O)[C@@H](NC(=O)[C@@H]1[C@H]2CC[C@H](C2)N1C)C(C)C
*A* 1.38

*Q* Please look up its IC50: CC[C@H](C)[C@@H]([C@@H](CC(=O)N1CCC[C@H]1[C@H](OC)[C@@H](C)C(=O)N[C@H](CO)Cc1ccccc1)OC)N(C)C(=O)[C@@H](NC(=O)[C@@H]1[C@H]2CC[C@H](C2)N1CC(N)=O)C(C)C [Compound 64] (X3-V[Dil][Dolaproine][Phe(ol)])
*A* 1.09
